Reported GI50 values are given for each entry in this list.
Test system: SF-539 CNS
protocolText: NCI tumour cell line growth inhibition, 48 h

COc1cc(/C(=C2/O[C@@H]([C@H]3COC(C)(C)O3)[C@H]3OC(C)(C)O[C@@H]23)c2ccc3c(c2)OCO3)cc(OC)c1OC: 8.05 µM
O=C1NC(=O)[C@@H](c2c[nH]c3ccccc23)[C@@H]1c1c[nH]c2ccccc12: > 25 µM

Could you now consider this next compound?
# input Provide the documented GI50 with SF-539 CNS as the system for O=c1c2c(=NCCN3CCCC3)cc3c(=O)n(CCCN4CCOCC4)c(=O)c4ccc(c(O)n1CCCN1CCOCC1)c2c4-3
# output 0.345 µM

* * *

Tested on: PC-3 prostate
protocolText: NCI tumour cell line growth inhibition, 48 h; in the data active = GI50 below about 0.43 µM; inactive = the rest
In this exercise, the only acceptable responses are 1 for active, 0 for inactive

COc1cc(OC)c(F)c(COc2cnc(Nc3cnn(CCO)c3)nc2)c1F: 0
COc1ccc2c(c1)[nH]c(=O)c1c3cc(OC)c(OC)cc3cn21: 1

# input // return assay outcome for Cc1ccc(-c2cc(-c3ccc(C)cc3)nc(N3CCN(CCNc4ccnc5cc(Cl)ccc45)CC3)n2)cc1
# output 0

* * *

System: SF-268 CNS
protocolText: NCI tumour cell line growth inhibition, 48 h; in the data active = GI50 below about 0.43 µM; inactive = the rest
In this exercise, the only acceptable responses are True (active), False (inactive)

# input // return assay outcome for COc1cnc2c(c1)C(=O)c1c-2n(CCCNCCN2CCOCC2)c(=O)c2cc([N+](=O)[O-])ccc12
# output True

# input Also need COc1ccc(/C=N\NC(=O)c2ccc3nc(-c4ccc(Cl)cc4)[nH]c3c2)cc1 , thanks.
# output False

* * *

Tested on: KM12 colon
protocolText: NCI tumour cell line growth inhibition, 48 h
Reported TGI values are given for each entry in this list.

Illustrative cases are given below, each with its answer.
CCOC(=O)C(=O)Nc1ccccc1OCC: > 100 µM
O=C1CCNC(=O)NC1: > 100 µM
O=C(CCN1CCCC1)Nc1ccc2c(NCCc3ccccc3)c3ccccc3nc2c1: 1.8 µM
COc1ccc(-c2nc(-c3ccccn3)c(-c3ccccn3)n2CC(C)C)cc1OC1CCCC1: > 165 µM
Cc1ccc(/C=C/C(=O)c2ccc([N+](=O)[O-])cc2)cc1: > 100 µM

# input For the molecule shown here, COc1cc(/C(=C2/O[C@@H]([C@H]3COC(C)(C)O3)[C@H]3OC(C)(C)O[C@@H]23)c2ccc3c(c2)OCO3)cc(OC)c1OC , give the reported TGI.
# output > 25 µM

# input Also need CCOC(=O)c1ccc(N(C=O)CCC(=O)CCl)cc1 , thanks.
# output 15.4 µM

# input Also need OCC1OC(c2ccccc2)CC1O (stereo unspecified) , thanks.
# output > 100 µM

# input Also need NCCS(=O)(=O)O , thanks.
# output > 100 µM

# input Also need COc1ccc(C2C(C#N)=C(S)N(C3OC(CO)C(O)C(O)C3O)C(C)=C2C(C)=O)cc1 (stereo unspecified) , thanks.
# output > 100 µM

# input Also need O=C(N[C@H]1CCC[C@H]1C(=O)Nc1ccc(C(F)(F)F)cc1)OCc1ccccc1 , thanks.
# output > 100 µM

# input Also need CN(C)C=NCC(O)c1ccccc1 (stereo unspecified) , thanks.
# output > 100 µM

# input Also need O=C(NN1C(=O)C(Cl)C1c1ccccc1Cl)c1ccccc1O (stereo unspecified) , thanks.
# output > 100 µM

# input Also need COc1ccc(CCCN2c3ccccc3Sc3ccccc32)cc1 , thanks.
# output > 100 µM

# input Also need O=C(Nc1ccc(Nc2ccncc2)cc1)c1ccc(Nc2ccnc3ccc([N+](=O)[O-])cc23)cc1[N+](=O)[O-] , thanks.
# output > 100 µM

# input Also need C[C@@H](Oc1cc(-n2cnc3ccc(OCC4CCN(C)CC4)cc32)sc1C(N)=O)c1ccccc1Cl , thanks.
# output 2.73 µM

# input Also need CNc1ccc([N+](=O)[O-])c2c(NCCCN(C)C)ccnc12 , thanks.
# output > 100 µM

# input Also need O=NN1C(c2ccccc2)CCCC1c1ccccc1 (stereo unspecified) , thanks.
# output > 100 µM

# input Also need CC(=O)OCC1OC(n2c(N)c(C#N)c(-c3cccc(Cl)c3)c(C#N)c2=S)C(OC(C)=O)C(OC(C)=O)C1OC(C)=O (stereo unspecified) , thanks.
# output 38.9 µM

# input Also need O=C1/C(=C/c2ccc(Cl)c(Cl)c2)CNC/C1=C\c1ccc(Cl)c(Cl)c1 , thanks.
# output 24.9 µM
